For each entry below, report its EC50 value.
target: UniProt:O75460; test: IRE1a Endoribonuclease Nanoluciferase Assay (XBP1 luciferase reporter in 293 T cells); settings: 293 T cells transfected with XBP1 luciferase reporter plasmid
Sequence (O75460 19-977): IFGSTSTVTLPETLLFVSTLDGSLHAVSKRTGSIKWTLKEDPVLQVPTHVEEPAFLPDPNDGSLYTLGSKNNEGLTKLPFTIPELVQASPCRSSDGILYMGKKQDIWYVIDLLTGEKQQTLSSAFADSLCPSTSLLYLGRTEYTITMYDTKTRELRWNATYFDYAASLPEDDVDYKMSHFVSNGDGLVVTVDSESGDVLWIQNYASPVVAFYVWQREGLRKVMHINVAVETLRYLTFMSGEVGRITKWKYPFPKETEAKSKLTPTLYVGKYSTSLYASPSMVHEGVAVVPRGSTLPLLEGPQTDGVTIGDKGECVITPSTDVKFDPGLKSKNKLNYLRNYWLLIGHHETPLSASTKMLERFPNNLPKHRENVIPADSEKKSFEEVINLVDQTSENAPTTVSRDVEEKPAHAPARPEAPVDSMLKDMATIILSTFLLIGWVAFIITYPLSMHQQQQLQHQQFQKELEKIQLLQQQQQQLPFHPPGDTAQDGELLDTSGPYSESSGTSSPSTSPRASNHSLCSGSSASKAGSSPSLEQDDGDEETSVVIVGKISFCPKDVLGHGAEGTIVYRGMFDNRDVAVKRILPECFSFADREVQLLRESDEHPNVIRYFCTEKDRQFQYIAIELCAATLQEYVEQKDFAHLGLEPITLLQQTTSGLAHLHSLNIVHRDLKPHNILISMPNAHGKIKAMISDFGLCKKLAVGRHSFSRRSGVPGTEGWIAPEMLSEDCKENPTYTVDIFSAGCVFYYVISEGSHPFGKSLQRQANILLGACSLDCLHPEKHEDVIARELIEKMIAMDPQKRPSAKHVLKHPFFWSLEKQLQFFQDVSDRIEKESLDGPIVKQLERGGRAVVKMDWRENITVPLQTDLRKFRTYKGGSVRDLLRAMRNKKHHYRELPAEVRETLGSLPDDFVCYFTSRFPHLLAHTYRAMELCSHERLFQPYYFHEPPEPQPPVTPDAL

These recorded examples may help you get a feel for the data.
CCc1cc(-c2cc(NC(=O)Cc3cccc(OC(F)(F)F)c3)nn2C)cc2cnc(N[C@H]3CC[C@H](N)CC3)nc12    > 100 nM
CCc1cc(-c2cc(NC(=O)Cc3ccc(OC4CCN(C)CC4)c(C(F)(F)F)c3)nn2C)cc2cnc(N[C@H]3CC[C@H](N)CC3)nc12    ≤ 5 nM
CCc1cc(-c2cc(NC(=O)Cc3cc(C(F)(F)F)ccc3C(F)(F)F)nn2C)cc2cnc(N[C@H]3CC[C@H](NC(=O)CN)CC3)nc12    50 to 100 nM
CCc1cc(-c2cc(NC(=O)C(CC)c3ccccc3)nn2C)cc2cnc(N[C@H]3CC[C@H](N)CC3)nc12 (stereo partly drawn)    > 100 nM
Cn1nc(NC(=O)Cc2cccc(C(F)(F)F)c2)cc1-c1ccc2nc(N[C@H]3CC[C@H](N)CC3)ncc2c1    > 100 nM

Please turn your attention to the following entry.
Consider the compound CCc1cc(-c2cc(NC(=O)Cc3cc(C(F)(F)F)ccc3OC)nn2C)cc2cnc(N[C@H]3CC[C@H](N)CC3)nc12 and give its recorded EC50.
5 to 50 nM

Recorded values, source patent US10392367B2.
